- protocol-details: Metabolic stability in human liver microsomes assessed as compound remaining at 1 uM after 60 mins
- Assay type: ADME, Microsome
- condition-parameters: read-out: Stability
API: label(entry) gives met if the entry's remaining at 1 h, 1 µM is strictly smaller than 80%; on equality or larger values it gives not met.

compound: CS(=O)(=O)Nc1ccc2c(c1)S(=O)(=O)N=C(C1=C(O)C3CCCC3N(Cc3ccc(Cl)cc3)C1=O)N2 (racemic)
class-name: not met
--
compound: CS(=O)(=O)Nc1ccc2c(c1)S(=O)(=O)N=C(C1=C(O)[C@H]3CCC[C@H]3N(Cc3ccc(F)c(F)c3)C1=O)N2
class-name: not met
--
compound: CS(=O)(=O)Nc1ccc2c(c1)S(=O)(=O)N=C(C1=C(O)[C@H]3CCC[C@H]3N(Cc3cccc(C(F)(F)F)c3)C1=O)N2
class-name: met

# input for lookup
Request: Would you kindly verify if remaining at 1 h, 1 µM of Cc1cc(CN2C(=O)C(C3=NS(=O)(=O)c4cc(NS(C)(=O)=O)ccc4N3)=C(O)[C@H]3CCC[C@H]32)ccc1F is strictly less than 80%?
Response: met

====

- protocol-details: Metabolic stability in human liver microsomes assessed as compound remaining at 1 uM after 60 mins
- Format: ADME, Microsome
- condition-parameters: read-out: Stability
The entries below come with measured remaining at 1 h, 1 µM values attached.
Report the figure in % without appending any unit label.

molecule: CS(=O)(=O)Nc1ccc2c(c1)S(=O)(=O)N=C(C1=C(O)[C@@H]3CCCC[C@@H]3N(Cc3ccc(F)cc3)C1=O)N2
measure-name: remaining at 1 h, 1 µM
unit-symbol: %
endpoint-result: 80
--
molecule: CS(=O)(=O)Nc1ccc2c(c1)S(=O)(=O)N=C(C1=C(O)C3CCCCC3N(Cc3ccc(F)cc3)C1=O)N2 (racemic)
measure-name: remaining at 1 h, 1 µM
unit-symbol: %
endpoint-result: 81

Next molecule, remaining at 1 h, 1 µM to be filled in.
Request: Recorded remaining at 1 h, 1 µM for CS(=O)(=O)Nc1ccc2c(c1)S(=O)(=O)N=C(C1=C(O)[C@H]3CCC[C@H]3N(Cc3ccc(F)c(Cl)c3)C1=O)N2 , please?
Response: 81
